Tested on: Pfeiffer (EZH2 A677G)
Assay: In vitro 50% growth inhibition (GI50), MTT/CCK8, Pfeiffer cells
Assay type: cell-based, Human
Settings: EZH2 A677G mutant cells Pfeiffer
Description: In the present invention, a representative tumor cell line was selected to determine the cell growth inhibition activity of the present compound. Cell culture conditions and methods were in accordance with the requirements for each cell lines. […] Suspension culture cells were collected by centrifugation (1700 rpm, 3 minutes), and the supernatant was discarded and the cells were counted. […]
Measure name: growth inhibitory activity / GI50 level against Pfeiffer, in words

Chemical string	Reading
C=CC(=O)N1CCC(N(CC)c2cc(-c3ccc(CN4CCC(OCCOC)CC4)cc3)cc(C(=O)NCc3c(C)cc(C)[nH]c3=O)c2C)CC1	subnanomolar level
C=CC(=O)N1CCC(N(CC)c2cc(-c3ccc(CN4CCC5(CCCO5)CC4)cc3)cc(C(=O)NCc3c(C)cc(C)[nH]c3=O)c2C)CC1	subnanomolar level
C=CC(=O)N1CCC(N(CC)c2cc(-c3ccc(CN4CCN(C5CCOCC5)CC4)cc3)cc(C(=O)NCc3c(C)cc(C)[nH]c3=O)c2C)CC1	subnanomolar level
C=CC(=O)N1CCC(N(CC)c2cc(-c3ccc(CN4CCC(OC)CC4)cc3)cc(C(=O)NCc3c(C)cc(C)[nH]c3=O)c2C)CC1	subnanomolar level
C=CC(=O)N1CCC(N(CC)c2cc(-c3ccc(CN4CCC(OCC)CC4)cc3)cc(C(=O)NCc3c(C)cc(C)[nH]c3=O)c2C)CC1	subnanomolar level

----------
Assay: In vivo pharmacokinetics in rats
Settings: male, rat, plasma; SD rats; IV 5 mg/kg, PO 100 mg/kg; methanesulfonic acid aqueous solution
bioavailability by entry:
Measure name: bioavailability

Chemical string	Reading
C=CC(=O)N1CCC(N(CC)c2cc(-c3ccc(CN4CCCCC4)cc3)cc(C(=O)NCc3c(C)cc(C)[nH]c3=O)c2C)CC1	48.8%
C=CC(=O)N1CCC(N(CC)c2cc(-c3ccc(CN4CCOCC4)cc3)cc(C(=O)NCc3c(C)cc(C)[nH]c3=O)c2C)CC1	39.1%

The reported measurements were obtained from patent US11214561B2.
